# testMethodNotes: chemical genetic growth profiling, strain panel (AID 1159580);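 further: tested at 20 µM; growth read once vehicle control cultures reached saturation at 30 °C; 1 = growth at the plate median or of vehicle wells; lower values mean less growth of the strain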
# experimentalSetup: S. cerevisiae deletion strains, growth OD, locus YCL016C, strain dcc1, active compounds read low
Among all 5,500 compounds or so, about 2,000 (36%) were called active. About 18% were inconclusive and are not listed. The list shows a part of the results.
Below: a set of entries, each annotated with reported normalized growth.
The reply should be a number, written without any unit.

Entry CCn1cc(C(=O)O)c(=O)c2cc(F)c(N3CCNC(C)C3)c(F)c21 (stereo not drawn) ; normalized growth = 0.958

Entry c1ccc2c(c1)CCCC2C1=NCCN1 (stereo not drawn) ; normalized growth = 1.02

Entry CC#CC1(O)CCC2C3CCC4=CC(=O)CCC4=C3C(c3ccc(N(C)C)cc3)CC21C (stereo not drawn) ; normalized growth = 1.01

Entry COC(=O)C1=COC(OC2OC(CO)C(O)C(O)C2O)C2C(C)CC(=O)C12 (stereo not drawn) ; normalized growth = 1.02

Entry CC[C@@]1(O)C[C@H](O[C@H]2C[C@H](N(C)C)[C@H](O)[C@H](C)O2)c2c(cc3c(c2O)C(=O)c2c(O)ccc(O)c2C3=O)[C@H]1C(=O)OC ; normalized growth = 0.893

Entry COc1ccc(C(c2ccc(OC)cc2)C(Cl)(Cl)Cl)cc1 ; normalized growth = 1.01

Entry O=c1cccc2ccc(O)c(O)c2c1O ; normalized growth = 0.938

Would you kindly look at the next entry?
Entry c1ccc2c(c1)sc1ccccc12 ; normalized growth = 0.877

----------
# testMethodNotes: chemical genetic growth profiling, strain panel (AID 1159580)
# experimentalSetup: S. cerevisiae deletion strains, growth OD, locus YLR371W, strain rom2, active compounds read low
The campaign covered roughly 5,500 compounds. About 2,000 (36%) were called active. Not shown: some 18% with an inconclusive outcome. The list shows a part of the results.
quantityName: normalized growth

Entry CNCCC(Oc1ccc(C(F)(F)F)cc1)c1ccccc1 (centres undefined) ; normalized growth = 0.985 (inactive)

Continuing:
Entry COc1ccc(OC)c(C(O)CNC(=O)CN)c1 (centres undefined) ; normalized growth = 0.974 (inactive)

Entry CN(C)CCN(Cc1cccs1)c1ccccn1 ; normalized growth = 1.01 (inactive)

Entry COC(=O)[C@@H]1OC(=O)C2OC23[C@@]1(C)CCC1[C@]2(C)C(C[C@H](O)[C@]13C)C(C)(C)[C@H](OC(C)=O)C[C@@H]2OC(C)=O (some centres undefined) ; normalized growth = 1 (inactive)

----------
# testMethodNotes: chemical genetic growth profiling, strain panel (AID 1159580)
# experimentalSetup: S. cerevisiae deletion strains, growth OD, locus YER110C, active compounds read low
In all, about 5,500 compounds went through this assay and about 2,000 (36%) were called active. Inconclusive results (about 18%) are left out. The list shows a part of the results.
Below: a set of entries, each annotated with reported normalized growth.
The reply should be a number, written without any unit.

These recorded examples may help you get a feel for the data.
Entry CN1CC(=O)N=C1N ; normalized growth = 0.992

Entry CN1C2C[C@H](OC(=O)[C@H](CO)c3ccccc3)C[C@H]1[C@@H](O)C2 ; normalized growth = 1

Entry OCC(O)CN1CCN(c2ccccc2)CC1 (stereo unspecified) ; normalized growth = 0.988

Continuing:
Entry CCC1(O)CC(OC2CC(N(C)C)C(OC3CC(O)C(OC4CCC(=O)C(C)O4)C(C)O3)C(C)O2)c2c(cc3c(c2O)C(=O)c2c(O)cccc2C3=O)C1C(=O)OC (stereo unspecified) ; normalized growth = 1.01

Entry COc1ccc(-c2coc3cc(O)ccc3c2=O)cc1 ; normalized growth = 0.974

----------
# testMethodNotes: chemical genetic growth profiling, strain panel (AID 1159580)
# experimentalSetup: S. cerevisiae deletion strains, growth OD, locus YDR392W, strain spt3, active compounds read low
About 2,000 (36%) of roughly 5,500 compounds were called active. About 18% were inconclusive and are not listed. The list shows a part of the results.
quantityName: normalized growth
The reply should be a number, written without any unit.

These recorded examples may help you get a feel for the data.
Entry CCC(C)C(=O)O[C@@H]1C[C@@]2(C)[C@H](c3ccoc3)OC(=O)CC23OC2(C)O[C@]14[C@]1(C)[C@@H](CC(=O)OC)C5(C)CC1(O)[C@](O)(C5OC(=O)C1(C)OC1C)[C@@H](OC(C)=O)[C@]34O2 (some centres undefined) ; normalized growth = 0.918

Entry CCCCCCCCCCC[C@@H](C[C@H]1OC(=O)[C@H]1CCCCCC)OC(=O)[C@@H](CC(C)C)NC=O ; normalized growth = 1.1

Entry CN(C)CCCC1(c2ccc(F)cc2)OCc2cc(C#N)ccc21 (centres undefined) ; normalized growth = 0.894

Entry CNCCC(Oc1ccc(C(F)(F)F)cc1)c1ccccc1 (centres undefined) ; normalized growth = 0.996

Entry CC[C@]1(O)CC2CN(CCc3c([nH]c4ccccc34)[C@@](C(=O)OC)(c3cc4c(cc3OC)N(C)[C@H]3[C@@](O)(C(=O)OC)[C@H](OC(C)=O)[C@]5(CC)C=CCN6CC[C@]43[C@@H]65)C2)C1 (some centres undefined) ; normalized growth = 0.859

Entry CN(C)CCN(Cc1ccccc1)c1ccccn1 ; normalized growth = 0.999

Continuing:
Entry CN1C2CCC1CC(OC(c1ccccc1)c1ccccc1N)C2 (centres undefined) ; normalized growth = 1.01

Entry CC1CCc2cc(F)cc3c(=O)c(C(=O)O)cn1c23 (centres undefined) ; normalized growth = 0.941

Entry CN(C)CCN(Cc1cccs1)c1ccccn1 ; normalized growth = 1.01

----------
Below: a set of entries, each annotated with reported normalized growth.
# testMethodNotes: chemical genetic growth profiling, strain panel (AID 1159580);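 further: tested at 20 µM; growth read once vehicle control cultures reached saturation at 30 °C; 1 = growth at the plate median or of vehicle wells; lower values mean less growth of the strain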
# experimentalSetup: S. cerevisiae deletion strains, growth OD, locus YGL167C, strain pmr1, active compounds read low
The campaign covered roughly 5,500 compounds. About 2,000 (36%) were called active. About 18% were inconclusive and are not listed. The list shows a part of the results.
The reply should be a number, written without any unit.

These recorded examples may help you get a feel for the data.
Entry O=C(Oc1cc(OC(=O)c2ccccc2)c2c(c1)O[C@H](c1ccc(OC(=O)c3ccccc3)c(OC(=O)c3ccccc3)c1)[C@@H](OC(=O)c1ccccc1)C2)c1ccccc1 ; normalized growth = 0.993

Entry COC(=O)/C=C/C(C)=C/C=C/C(C)=C/C=C/C=C(C)/C=C/C=C(C)/C=C/C(=O)O ; normalized growth = 1.03

Entry O=C(O[C@@H]1Cc2c(O)cc(O)cc2O[C@@H]1c1ccc(O)c(O)c1)c1cc(O)c(O)c(O)c1 ; normalized growth = 1.02

Continuing:
Entry CC(=O)Oc1cc(OC(C)=O)c2c(c1)O[C@H](c1ccc(OC(C)=O)c(OC(C)=O)c1)[C@H](OC(C)=O)C2 ; normalized growth = 0.998

Entry O=C(Oc1cc(O)cc2c1C[C@@H](OC(=O)c1cc(O)c(O)c(O)c1)[C@@H](c1cc(O)c(O)c(O)c1)O2)c1cc(O)c(O)c(O)c1 ; normalized growth = 1.01

----------
# testMethodNotes: chemical genetic growth profiling, strain panel (AID 1159580);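 further: tested at 20 µM; growth read once vehicle control cultures reached saturation at 30 °C; 1 = growth at the plate median or of vehicle wells; lower values mean less growth of the strain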
# experimentalSetup: S. cerevisiae deletion strains, growth OD, locus YDR195W, strain ref2
The whole screen tested about 5,500 compounds, of which about 2,000 (36%) were called active. Not shown: some 18% with an inconclusive outcome. This is one part of the list.
Below: a set of entries, each annotated with reported normalized growth.
The reply should be a number, written without any unit.

Entry COc1ccc([C@H]2Oc3c(I)c(OC)cc(OC)c3C[C@@H]2O)cc1OC ; normalized growth = 1.01

Entry Oc1ccc2c(c1)O[C@H](c1ccc(O)c(O)c1)[C@@H](O)C2 ; normalized growth = 0.991

Entry CNC(=O)O/N=C(\C)SC ; normalized growth = 0.971

Entry COc1ccc(-c2coc3cc(O)ccc3c2=O)c(OC)c1 ; normalized growth = 0.974

Continuing:
Entry CN1C2CCC1CC(OC(c1ccccc1)c1ccccc1)C2 (stereo not given) ; normalized growth = 0.975

----------
# testMethodNotes: chemical genetic growth profiling, strain panel (AID 1159580);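 further: tested at 20 µM; growth read once vehicle control cultures reached saturation at 30 °C; 1 = growth at the plate median or of vehicle wells; lower values mean less growth of the strain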
# experimentalSetup: S. cerevisiae deletion strains, growth OD, locus YJL134W, strain LCB3, active compounds read low
The campaign covered roughly 5,500 compounds. About 2,000 (36%) were called active. Roughly 18% stayed inconclusive and do not appear here. Some of the results follow.
quantityName: normalized growth
The reply should be a number, written without any unit.

These recorded examples may help you get a feel for the data.
Entry COC(=O)[C@@H]1OC(=O)C2OC23[C@@]1(C)CCC1[C@]2(C)C(C[C@H](O)[C@]13C)C(C)(C)[C@H](OC(C)=O)C[C@@H]2OC(C)=O (stereo partly drawn) ; normalized growth = 1.01

Entry C[C@H]1COc2c(N3CCN(C)CC3)c(F)cc3c(=O)c(C(=O)O)cn1c23 ; normalized growth = 1

Entry NS(=O)(=O)c1cc2c(cc1Cl)NC=NS2(=O)=O ; normalized growth = 1

Entry CNC(=O)O/N=C(\C)SC ; normalized growth = 1.02

Continuing:
Entry C=C1C2CC[C@@]3(C)[C@H](c4ccoc4)OC(=O)C[C@]13O[C@H]1CC(=O)C(C)(C)[C@H](C(OC(C)=O)C(=O)OC)[C@@]21C (stereo partly drawn) ; normalized growth = 0.998

Entry CCCCC[C@H]1C(=O)O[C@H](C)[C@H](NC(=O)c2cccc(NC=O)c2O)C(=O)O[C@@H](C)[C@@H]1OC(=O)CC(C)C ; normalized growth = 0.932

Entry CC1COc2c(N3CCN(C)CC3)c(F)cc3c(=O)c(C(=O)O)cn1c23 (stereo not drawn) ; normalized growth = 1.01

Entry COc1c(N2CCNC(C)C2)c(F)cc2c(=O)c(C(=O)O)cn(C3CC3)c12 (stereo not drawn) ; normalized growth = 1.01

Each recorded value in this set is attributed to PubChem BioAssay AID1159580.
